Where these numbers come from: the supplement of paper PMC4466140

Biological target: SpMyo1
Assay: SPOT peptide array binding signal intensity (averaged, normalized) (arbitrary units (background-subtracted, floor 0; scale differs between SH3 domains)); higher = stronger binding of the SH3 domain to the peptide
In this section, each of the binders is paired with its reported SPOT peptide array binding signal intensity.

As a guide, the following entries are already answered.
> print(dat)
            binder  recorded.result
1  PLQSKIPMLPSRRTM             61.5
2  KDKSRPPRPPPKPLH              277
3  RRRIAYPFYPFKKLG              2.5

// next item, SPOT peptide array binding signal intensity requested
In: Identify SPOT peptide array binding signal intensity associated with the binder PIVPSSPAPPLPLSG
Out: 1220
